# System: L 929 cells
# EXPERIMENTAL DETAILS: Cytotoxicity on cell cultures (Table 2)
# CONDITION DETAILS: culture time 12 hr; 5 × 10^-5 M; control 80
QUANTITY KIND: Cytotoxicity Index (number of cells)

SMILES STRING	TARGET UNDER TEST	MEASURED
O=C(O)C(C(=O)O)c1csc([N+](=O)[O-])c1	L 929 cells	74 number of cells
CC(=O)Nc1ccc([N+](=O)[O-])s1	L 929 cells	60 number of cells
O=C(O)c1ccc([N+](=O)[O-])s1	L 929 cells	70 number of cells
O=C(O)CCCNC(=O)c1ccc([N+](=O)[O-])s1	L 929 cells	80 number of cells
ON=Cc1ccc(Br)s1	L 929 cells	70 number of cells
NC(=O)c1ccc([N+](=O)[O-])s1	L 929 cells	50 number of cells
O=C(O)CCNC(=O)c1ccc([N+](=O)[O-])s1	L 929 cells	75 number of cells
